The values you see were collected from paper PMC8704707.

test: in vitro; conditions: human, HepG2 cells
Attribute: EC50 at 24 h

{"MOLECULE": "Cl.N=C(NN)N/N=C/c1cc(I)cc(I)c1O [Compound 2e]", "EC50 at 24 h": "> 100 µM"}
{"MOLECULE": "CC(=O)Oc1c(I)cc(I)cc1/C=N/NC(=N)N [Compound 2a]", "EC50 at 24 h": "> 20 µM"}
{"MOLECULE": "NC(N)=NN=C1C(=O)Nc2ccccc21 [Compound 1p]", "EC50 at 24 h": "> 100 µM"}
{"MOLECULE": "NC(=S)N/N=C/c1ccc([N+](=O)[O-])o1 [Compound 3e]", "EC50 at 24 h": "< 6 µM"}
{"MOLECULE": "[H]/N=C(\\N)NN=Cc1cc(I)cc(I)c1 [Compound 2c]", "EC50 at 24 h": "< 6 µM"}
{"MOLECULE": "[H]/N=C(\\N)NN=Cc1cc(I)cc(I)c1O [Compound 1m]", "EC50 at 24 h": "> 20 µM"}
